target: UniProt P00772; test: Specificity assay, porcine pancreatic elastase (pNA substrate); assay type: biochemical; conditions: 1 h enzyme-inhibitor pre-incubation at 30° C., Succ-AAA-pNA
Sequence (P00772 27-266): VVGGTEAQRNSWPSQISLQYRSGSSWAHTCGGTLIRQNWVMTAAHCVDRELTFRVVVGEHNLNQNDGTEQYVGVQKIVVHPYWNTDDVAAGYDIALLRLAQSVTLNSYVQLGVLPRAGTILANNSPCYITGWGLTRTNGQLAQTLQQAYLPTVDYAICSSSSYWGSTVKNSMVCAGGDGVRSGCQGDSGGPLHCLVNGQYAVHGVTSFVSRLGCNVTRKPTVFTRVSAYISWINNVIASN
Starred links: 1 amine or outer side, 2 acyl side, 3 side chain; linkers in the order of their positions; H or OH if unused. Non-standard residues stand in square brackets, D forms with d. Residues, ends and D or L forms follow the SMILES beside them. ξ: configuration not given here. *: point of attachment. Hyp = O=C(O)[C@@H]1C[C@@H](O)CN1; azaNva = CCCN(N[*:1])C(=O)[*:2]; ξNva = CCCC(N)C(=O)O; Bn = c1ccc(C*)cc1
Property: pIC50
Reminder that pIC50 is minus the log10 of a molar concentration.

CCCN(NC(=O)[C@@H]1C[C@@H](OCc2ccccc2)CN1C(=O)[C@@H](NC(=O)[C@@H](NC(=O)[C@@H](CCC(=O)O)NC(=O)[C@H](CC(=O)O)NC(C)=O)[C@@H](C)CC)C(C)C)C(=O)NCC(=O)OCC [Compound 201] (Ac-D[dE]IV[Hyp](Bn)[azaNva]G-OEt)
3.77

Now, please, on to the next compound.
(Q) Find the recorded pIC50 belonging to CCCC(C=O)NC(=O)[C@@H]1C[C@@H](OCc2ccccc2)CN1C(=O)[C@@H](NC(=O)[C@@H](NC(=O)[C@@H](CCC(=O)O)NC(=O)[C@H](CC(=O)O)NC(C)=O)[C@@H](C)CC)C(C)C (stereo partly shown) [Compound 104] (Ac-D[dE]IV[Hyp](Bn)[ξNva]-aldehyde) and report it.
(A) 5.10

###

biological target: human leukocyte elastase (Homo sapiens); test: Specificity assay, human leukocyte elastase (pNA substrate); format: biochemical; details: 1 h enzyme-inhibitor pre-incubation at 30° C., Succ-AAV-pNA
Sequence (P08246 30-267): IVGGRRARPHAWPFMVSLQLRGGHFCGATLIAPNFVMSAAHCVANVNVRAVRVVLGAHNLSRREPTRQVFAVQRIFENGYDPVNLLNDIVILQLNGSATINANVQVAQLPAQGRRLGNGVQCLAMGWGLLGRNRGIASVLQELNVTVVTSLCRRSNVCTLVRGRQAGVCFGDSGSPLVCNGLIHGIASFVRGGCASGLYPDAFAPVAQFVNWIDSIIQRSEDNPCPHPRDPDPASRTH
pIC50: −log10 of the molar value. Starred links: 1 amine or outer side, 2 acyl side, 3 side chain; linkers in the order of their positions; H or OH if unused. Non-standard residues stand in square brackets, D forms with d. Residues, ends and D or L forms follow the SMILES beside them. ξ: configuration not given here. *: point of attachment. NH(1S-phenylethyl) = C[C@H](N*)c1ccccc1; Hyp = O=C(O)[C@@H]1C[C@@H](O)CN1; azaNva = CCCN(N[*:1])C(=O)[*:2]; AzaAla = CN(N[*:1])C(=O)[*:2]; X7 = CCCCCN(N[*:1])C(=O)[*:2]; X2 = CCCN(N*)C(=O)OCc1ccccc1; X5 = CCCN(N*)C(=O)CCc1ccccc1; Nva = CCC[C@H](N)C(=O)O; ξNva = CCCC(N)C(=O)O; ξAbu = CCC(N)C(=O)O; Bn = c1ccc(C*)cc1; CF3 = FC(F)(F)*
Tag: met if measured pIC50 is not below 5, not met if it is.

(Q) Check if pIC50 >= 5 (inclusive). Item: `CCCN(NC(=O)[C@@H]1C[C@@H](OCc2ccccc2)CN1C(=O)[C@@H](NC(=O)[C@@H](NC(C)=O)C1CCCCC1)C(C)C)C(=O)N[C@@H](C)c1ccccc1`
(A) met

(Q) Check if pIC50 >= 5 (inclusive). Item: CCC(NC(=O)[C@@H]1C[C@@H](OCc2ccccc2)CN1C(=O)[C@@H](NC(=O)[C@@H](NC(=O)[C@@H](CCC(=O)O)NC(=O)[C@H](CC(=O)O)NC(C)=O)[C@@H](C)CC)C(C)C)C(=O)C(F)(F)F (stereo partly shown) [Compound 101] (Ac-D[dE]IV[Hyp](Bn)[ξAbu]-CF3)
(A) met

(Q) Check if pIC50 >= 5 (inclusive). Item: CC[C@H](C)[C@H](NC(=O)[C@@H](CCC(=O)O)NC(=O)[C@H](CC(=O)O)NC(C)=O)C(=O)N[C@H](C(=O)N1C[C@H](OCc2ccccc2)C[C@H]1C(=O)NN(C)C(=O)N[C@@H](C)c1ccccc1)C(C)C [Compound 221] (Ac-D[dE]IV[Hyp](Bn)[AzaAla]-{NH(1S-phenylethyl)})
(A) not met

(Q) Check if pIC50 >= 5 (inclusive). Item: CCCN(NC(=O)[C@@H]1C[C@@H](OCc2ccccc2)CN1C(=O)[C@@H](NC(=O)[C@@H](NC(=O)[C@@H](CCC(=O)O)NC(=O)[C@H](CC(=O)O)NC(C)=O)[C@@H](C)CC)C(C)C)C(=O)NCC(=O)OCC [Compound 201] (Ac-D[dE]IV[Hyp](Bn)[azaNva]G-OEt)
(A) not met

(Q) Check if pIC50 >= 5 (inclusive). Item: CCCN(NC(=O)[C@@H]1C[C@@H](OCc2ccccc2)CN1C(=O)[C@@H](NC(=O)[C@@H](NC(=O)[C@@H](CCC(=O)O)NC(=O)[C@H](CC(=O)O)NC(C)=O)[C@@H](C)CC)C(C)C)C(=O)OCc1ccccc1 [Compound 206] (Ac-D[dE]IV[Hyp](Bn)-X2)
(A) met

(Q) Check if pIC50 >= 5 (inclusive). Item: CCCC(C=O)NC(=O)[C@@H]1C[C@@H](OCc2ccccc2)CN1C(=O)[C@@H](NC(=O)[C@@H](NC(=O)[C@@H](CCC(=O)O)NC(=O)[C@H](CC(=O)O)NC(C)=O)[C@@H](C)CC)C(C)C (stereo partly shown) [Compound 104] (Ac-D[dE]IV[Hyp](Bn)[ξNva]-aldehyde)
(A) met

(Q) Check if pIC50 >= 5 (inclusive). Item: CCCC(NC(=O)[C@@H]1C[C@@H](OCc2ccccc2)CN1C(=O)[C@@H](NC(=O)[C@@H](NC(C)=O)C1CCCCC1)C(C)C)C(=O)C(=O)NCc1ccccc1 (stereo partly shown)
(A) met

(Q) Check if pIC50 >= 5 (inclusive). Item: CCCN(NC(=O)[C@@H]1C[C@@H](OCc2ccccc2)CN1C(=O)[C@@H](NC(=O)[C@@H](NC(=O)[C@@H](CCC(=O)O)NC(=O)[C@H](CC(=O)O)NC(C)=O)[C@@H](C)CC)C(C)C)C(=O)CCc1ccccc1 [Compound 202] (Ac-D[dE]IV[Hyp](Bn)-X5)
(A) met

(Q) Check if pIC50 >= 5 (inclusive). Item: CCC[C@H](NC(=O)[C@@H]1C[C@@H](OCc2ccccc2)CN1C(=O)[C@@H](NC(=O)[C@@H](NC(=O)[C@@H](CCC(=O)O)NC(=O)[C@H](CC(=O)O)NC(C)=O)[C@@H](C)CC)C(C)C)C(=O)N[C@@H](C)c1ccccc1 [Compound 108] (Ac-D[dE]IV[Hyp](Bn)[Nva]-{NH(1S-phenylethyl)})
(A) met

(Q) Check if pIC50 >= 5 (inclusive). Item: CCCCCN(NC(=O)[C@@H]1C[C@@H](OCc2ccccc2)CN1C(=O)[C@@H](NC(=O)[C@@H](NC(=O)[C@@H](CCC(=O)O)NC(=O)[C@H](CC(=O)O)NC(C)=O)[C@@H](C)CC)C(C)C)C(=O)N[C@@H](C)c1ccccc1 [Compound 219] (Ac-D[dE]IV[Hyp](Bn)[X7]-{NH(1S-phenylethyl)})
(A) not met
